These entries and their values trace back to patent US9447029B2.

- Test Target: CYP2D6 (Homo sapiens (Human))
- Sequence (P10635 whole entry): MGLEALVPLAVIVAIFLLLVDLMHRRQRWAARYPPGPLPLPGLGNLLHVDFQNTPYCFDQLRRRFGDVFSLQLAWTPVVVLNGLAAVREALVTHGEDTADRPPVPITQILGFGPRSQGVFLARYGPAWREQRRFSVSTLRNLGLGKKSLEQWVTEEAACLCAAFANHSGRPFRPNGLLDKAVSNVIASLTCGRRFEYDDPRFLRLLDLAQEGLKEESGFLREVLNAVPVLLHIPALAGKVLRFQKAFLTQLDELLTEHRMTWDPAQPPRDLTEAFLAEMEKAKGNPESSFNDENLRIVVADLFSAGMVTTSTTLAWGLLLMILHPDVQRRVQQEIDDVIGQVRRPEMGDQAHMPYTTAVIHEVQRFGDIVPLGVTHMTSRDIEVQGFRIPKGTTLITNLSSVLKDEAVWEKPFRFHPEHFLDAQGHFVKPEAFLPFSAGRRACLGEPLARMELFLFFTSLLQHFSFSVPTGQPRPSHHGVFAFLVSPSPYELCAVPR
- Protocol Description: Inhibition of Cytochrome P4502D6 (CYP2D6) using Supersomes
- Type: in vitro ADME
- Test Settings: AMMC substrate, read-out: IC50 (Fluorinated derivative)
Counter-ions that a name gives are not always drawn.
Readout Type: IC50

1. CCCCCOc1cccc(C(F)(F)CNCC(=O)N(C)C)c1 [Example 1-2, hydrochloride]; > 40 µM
2. O=C(CNCC(F)(F)c1cccc(OCCCC(F)(F)F)c1)N1CCOCC1 [Example 1-21, hydrochloride]; > 40 µM
3. CCCCOc1cccc(C(F)(F)CN(CCCOC)CC(=O)N(C)C)c1 [Example 3-2, hydrochloride]; > 40 µM
4. CCCCOc1cccc(C(F)(F)CNC(C)C(=O)N(C)C)c1 (centres unmarked) [Example 2-1, hydrochloride]; > 40 µM
5. CCCCOc1cccc(C(F)(F)CNCC(=O)N(CCC)CCC)c1 [Example 1-3, hydrochloride]; 23.9 µM
